Test system: PRKD2
assayConditions: concentration: 1 μM, replicates: in singlicate; n = 1
quantity: %Inh (%)
Entry rule: numbers only, all in %.

compound: Cc1cccc(-c2cc(-c3c[nH]nc3-c3ccccn3)ccn2)c1
studySystem: PRKD2
scaleUnit: %
recordedNumber: 48
//
compound: Cc1nc(N(C)[C@H]2CN(C(=O)CC#N)CC[C@H]2C)c2cc[nH]c2n1
studySystem: PRKD2
scaleUnit: %
recordedNumber: 1
//
compound: Nc1ncnc2c1ncn2-c1cccc2ccccc12
studySystem: PRKD2
scaleUnit: %
recordedNumber: 0
//
compound: Nc1ncnc2c1ncn2-c1cccc(F)c1
studySystem: PRKD2
scaleUnit: %
recordedNumber: 10
//
compound: CCC(=O)c1c(-c2ccccc2)c2cc(Cl)ccc2c(=O)n1Cc1cc(S(C)(=O)=O)n(CCC(C)(C)O)n1
studySystem: PRKD2
scaleUnit: %
recordedNumber: 4
//
compound: CCc1ccc(-c2ccc3c(c2)-c2nn(C)cc2S(=O)(=O)N3C)cc1
studySystem: PRKD2
scaleUnit: %
recordedNumber: 13
//
compound: COc1ccc(-c2cc3c(C)nc(N)nc3n([C@H]3CC[C@H](OCCO)CC3)c2=O)cn1
studySystem: PRKD2
scaleUnit: %
recordedNumber: 0
//
compound: Nc1n[nH]c2nnc(-c3ccccc3)c(-c3ccccc3)c12
studySystem: PRKD2
scaleUnit: %
recordedNumber: 0
//
compound: COc1ccc(-n2cnc3c(N)ncnc32)cc1
studySystem: PRKD2
scaleUnit: %
recordedNumber: 1
//
compound: CC(C)(C)c1ccc(C(=O)Nc2cn3cc(-c4ccccc4)ccc3n2)cc1
studySystem: PRKD2
scaleUnit: %
recordedNumber: 19

**Query** Would you mind telling me what %Inh value was observed for `Nc1nc(-c2ccccc2F)c(-c2ccnc3ccccc23)s1` ?
**Result** 0

**Query** // lookup %Inh for COc1cc(Nc2nccc(N3CCC(NC(=O)C(C)c4ccc(Cl)cc4)C3)n2)cc(OC)c1OC (stereo not shown)
**Result** 0

**Query** Reported %Inh for `COC(=O)c1c(-c2ccccc2)c2cc(Br)ccc2c(=O)n1Cc1ccc(NC(=O)CCC(=O)O)cc1` : what is it?
**Result** 0

**Query** I am curious: what %Inh value has been reported for `Nc1ncnc2c1ncn2-c1ccc(Cl)cc1` ?
**Result** 0

**Query** # lookup: %Inh of `COc1cccc(C2=C(N(C)c3ccccc3)C(=O)NC2=O)c1`
**Result** 0

**Query** Fill in the blank: the reported %Inh of `Cl.NS(=O)(=O)c1cccc(Nc2cc(-c3ccc(F)cc3)n[nH]2)c1` is ____.
**Result** 5

**Query** Look at this compound and give its reported %Inh. `COc1cc2nccc(Nc3cccc(Oc4ccccc4)c3)c2cc1OC.Cl`
**Result** 0

**Query** State the recorded %Inh for this entry: `CCn1c(-c2nonc2N)nc2ccccc21`
**Result** 3

**Query** Would you mind telling me what %Inh value was observed for `O=C(Nc1n[nH]c2nc(-c3ccccc3)c(Br)cc12)C1CC1` ?
**Result** 0

====

Tested on: MAPKAPK5
assayConditions: concentration: 1 μM, replicates: in singlicate; n = 1
quantity: %Inh (%)
State the answer as a number, implicitly in %.

compound: Cc1ccc(Oc2ccc(Nc3ncnc4cc[nH]c34)cc2C)cn1
%Inh / %: 30

compound: O=C(Nc1n[nH]c2nc(-c3ccccc3)c(Cl)cc12)C1CC1
%Inh / %: 0

compound: COc1cccc(-n2cnc3c(N)ncnc32)c1
%Inh / %: 1

**Query** Name the recorded %Inh for `COc1cc2ncn(-c3cc(OCc4ccc(S(C)(=O)=O)cc4)c(C(N)=O)s3)c2cc1OC` .
**Result** 31

**Query** Return reported %Inh; argument: `O=C1NC(=O)C(c2ccccc2)=C1Nc1cccc(O)c1`
**Result** 20

====

Test system: SRPK3
quantity: Kd

**Query** Data request, read-out Kd, for `CN1C(=O)C(Nc2cc(Cl)c(O)c(Cl)c2)=C(c2ccc(Cl)cc2)C1=O`
**Result** > 10 µM

====

Test system: ADCK3
Construct: gene CABC1
assayConditions: concentration: 1 μM, replicates: in singlicate; n = 1
quantity: %Inh

Please review the entries below; each comes with its answer.
compound: CN(C)c1cc(-c2ccc3c(N)n[nH]c3c2)nc(N)n1
quantity: %Inh
result: 9%
//
compound: Cc1cccc(-c2cc(-c3c[nH]nc3-c3ccccn3)ccn2)c1
quantity: %Inh
result: 3%
//
compound: Cc1nnc(-c2ccc(C)c(-c3ccc(C(=O)O)cc3)c2)o1
quantity: %Inh
result: 0%
//
compound: O=C(Nc1ccc2c(c1)OCO2)NC1CCN(c2ccnc(NCc3ccc(F)cc3)n2)CC1
quantity: %Inh
result: 0%
//
compound: Nc1ncnc2c1ncn2-c1cccc2ccccc12
quantity: %Inh
result: 0%

**Query** What value of %Inh has been reported for the following compound? `Cc1ccc(Oc2ccc(Nc3ncnc4cc[nH]c34)cc2C)cn1`
**Result** 16%

**Query** What value of %Inh has been recorded for this entry: `CCC(=O)c1c(-c2ccccc2)c2cc(Cl)ccc2c(=O)n1Cc1cc(S(C)(=O)=O)n(CC(N)=O)n1`
**Result** 29%

**Query** I would be grateful if you could share the reported %Inh for CCS(=O)c1ccc(-c2coc3ccc(-c4nnc(C)o4)cc23)cc1 (stereo not drawn) .
**Result** 5%

**Query** # lookup: %Inh of `COc1cc2ncn(-c3cc(OCc4ccncc4Br)c(C(N)=O)s3)c2cc1OC`
**Result** 15%

====

# %Inh per record follows
System: IKK-epsilon
Construct: gene IKBKE
assayConditions: concentration: 1 μM, replicates: in singlicate; n = 1
Value expressed in %; do not type the unit.

The following compounds have reported results that may help.
compound: Cc1cccc(-c2cc(-c3c[nH]nc3-c3ccccn3)ccn2)c1
%Inh [%]: 21
--
compound: Nc1nccc2scc(-c3ccc4c(c3)CCN4C(=O)Cc3ccccc3)c12
%Inh [%]: 12
--
compound: Cc1c(Cn2c(C)nn3c(=O)cc(N4CCO[C@H](C)C4)nc23)cccc1C(F)(F)F
%Inh [%]: 0
--
compound: Nc1ncnc2c1ncn2-c1cccc2ccccc12
%Inh [%]: 0
--
compound: CCc1nc(-c2cccc(C)c2)c(-c2ccncc2)s1
%Inh [%]: 0
--
compound: COc1cc2ncn(-c3cc(OCCCc4ccccc4)c(C(N)=O)s3)c2cc1OC
%Inh [%]: 14
--
compound: Nc1n[nH]c2nnc(-c3ccccc3)c(-c3ccccc3)c12
%Inh [%]: 0
--
compound: Nc1ncnc2c1ncn2-c1ccc(Cl)cc1
%Inh [%]: 30

**Query** Provide value of %Inh for this record tested with IKK-epsilon: CCS(=O)c1ccc(-c2coc3ccc(-c4nnc(C)o4)cc23)cc1 (stereo not shown)
**Result** 0

**Query** Which measured %Inh belongs to `Cc1cccc(-c2nc(Nc3ccc4c(cnn4C)c3)c3ccccc3n2)n1` , tested on IKK-epsilon?
**Result** 21

====

Tested on: GRK1
pKd: −log10 of the molar value.
quantity: pKd

**Query** # query: pKd | item `OCCCNc1nccc(-c2c(-c3cccc(C(F)(F)F)c3)nn3cc(C(F)(F)F)ccc23)n1` | system: GRK1
**Result** < 5.00

====

System: MYLK2
quantity: pKd
# pKd = -log10(concentration in molar units)

**Query** Enter reported pKd observed with MYLK2 for `O=C(Nc1n[nH]c2cc(-c3ccccc3F)ccc12)C1CC1`
**Result** 6.96

====

System: MAP4K4
assayConditions: concentration: 1 μM, replicates: in singlicate; n = 1
quantity: %Inh (%)
Use % as the unit, but write only the number.

molecule: COC(=O)c1c(-c2ccccc2)c2cc(Br)ccc2c(=O)n1Cc1ccc(NC(=O)CCC(=O)O)cc1
quantity: %Inh
scaleUnit: %
recordedNumber: 0
//
molecule: Nc1ncnc2c1ncn2-c1cccc2ccccc12
quantity: %Inh
scaleUnit: %
recordedNumber: 0
//
molecule: CCCNC(=O)Nc1ccc(Oc2ncnc3ccn(C)c23)cc1
quantity: %Inh
scaleUnit: %
recordedNumber: 0
//
molecule: COc1ccc(-c2coc3ccc(-c4nnc(SCc5cccc(C#N)c5)o4)cc23)cc1
quantity: %Inh
scaleUnit: %
recordedNumber: 13
//
molecule: Cn1c(=O)c(F)c(Nc2ccc(I)cc2F)c2c(=O)n(OC[C@H](O)CO)cnc21
quantity: %Inh
scaleUnit: %
recordedNumber: 0
//
molecule: CN1C(=O)C(Nc2cc(Cl)c(O)c(Cl)c2)=C(c2ccc(Cl)cc2)C1=O
quantity: %Inh
scaleUnit: %
recordedNumber: 0

**Query** Dear colleague, I am looking for the recorded %Inh of the following molecule: `COC(=O)c1c(-c2ccccc2)c2cc(C)ccc2c(=O)n1Cc1ccccc1`
**Result** 0

**Query** So what does the record say about %Inh for COc1ccc(CNC(=O)NC2CCN(c3ccnc(Nc4ccc(F)cc4)n3)C2)cc1 (stereo not drawn) ?
**Result** 3

**Query** Which %Inh reading was recorded for the molecule `O=C(NCCNc1ccnc(Nc2ccc(F)cc2)n1)Nc1ccc2c(c1)OCO2` ?
**Result** 0
